Entry source: patent US5977386A

system: HCT-116 human colon carcinoma cells; experiment: MTS cytotoxicity assay (72 h exposure); format: cell-based; conditions: Homo sapiens, HCT-116, 72 h, read-out: Cytotoxicity Assay IC50 against HCT 116 Human colon tumor cell line
Listed compounds paired with reported pIC50
Value format note: pIC50 is -log10 of concentration (mol/L); just state the number.

Some solved cases for reference:
CCS[C@@H]1C[C@@]2(C)C(=O)[C@H](OC(C)=O)C3=C(C)[C@@H](OC(=O)[C@H](O)[C@@H](NC(=O)c4ccccc4)c4ccccc4)C[C@@](O)([C@@H](OC(=O)c4ccccc4)[C@@H]2[C@]2(OC(C)=O)CO[C@H]12)C3(C)C 9.05
CS[C@@H]1C[C@@]2(C)C(=O)[C@H](OC(C)=O)C3=C(C)[C@@H](OC(=O)[C@H](O)[C@@H](NC(=O)c4ccccc4)c4ccccc4)C[C@@](O)([C@@H](OC(=O)c4ccccc4)[C@@H]2[C@]2(OC(C)=O)CO[C@H]12)C3(C)C 8.96
CC(=O)O[C@H]1C(=O)[C@]2(C)C[C@@H](Sc3ccccc3)[C@H]3OC[C@@]3(OC(C)=O)[C@H]2[C@H](OC(=O)c2ccccc2)[C@]2(O)C[C@H](OC(=O)[C@H](O)[C@@H](NC(=O)c3ccccc3)c3ccccc3)C(C)=C1C2(C)C 9.24

Lab note: next compound to report on.
Exercise: What does the record list as pIC50 for CCOC(=O)N[C@@H](c1ccccc1)[C@@H](O)C(=O)O[C@H]1C[C@@]2(O)[C@@H](OC(=O)c3ccccc3)[C@@H]3[C@]4(OC(C)=O)CO[C@@H]4[C@H](SC)C[C@@]3(C)C(=O)[C@H](OC(C)=O)C(=C1C)C2(C)C ?
Solution: 9.15
